The values you see were collected from patent US20060258581A1.

- Test system: Jurkat leukemia cells
- Method description: Jurkat leukemia cell death, Annexin V/propidium iodide flow cytometry
- Assay type: cell-based
- Condition parameters: 10 µM
Metric name: % nonviable cells
Respond with the figure and its unit, in that order.

stdin: I'd like to know its % nonviable cells. The compound in question is CC(C)C[C@@H]1CN([C@H](CNCc2ccccc2)Cc2ccc3ccccc3c2)C(=O)C(=O)N1CCc1cccc(C(F)(F)F)c1
stdout: 55%

stdin: Another compound: CC(C)Cc1ccc(C(C)CN2C(=O)C(=O)N([C@H](CNCc3ccccc3)Cc3ccc4ccccc4c3)C[C@H]2CC(C)C)cc1 (stereo partly shown)
stdout: 60%

stdin: Moving on to CCCC[C@@H](CNCc1ccccc1)N1C[C@@H](CC(C)C)N(CCc2cccc(C(F)(F)F)c2)C(=O)C1=O
stdout: 48%

stdin: Then what about the compound CCCC[C@@H](CNCc1ccccc1)N1C[C@@H](CC(C)C)N(CC2CCC(C(C)(C)C)CC2)C(=O)C1=O (stereo partly shown) ?
stdout: 36%

stdin: And then CCCC[C@@H](CNCc1ccccc1)N1C[C@@H](CC(C)C)N(CC(C)c2ccc(CC(C)C)cc2)C(=O)C1=O (stereo partly shown) , what is it?
stdout: 20%

stdin: What do we get for CCCCCCCN1C(=O)C(=O)N([C@H](CCCC)CNCc2ccccc2)C[C@@H]1Cc1ccc2ccccc2c1 ?
stdout: 44%

stdin: Same for CCCC[C@H](CNCc1ccccc1)N1C[C@@H](CC(C)C)N(CC2CCC(C(C)(C)C)CC2)C(=O)C1=O (stereo partly shown)
stdout: 45%
